Reference source for all entries: ChEMBL document CHEMBL5058577

Test system: HEK-293T
Assay: Multiplex assay against HEK293T
Assay type: toxicity, cell-based
Details: human, 48 h, 10 µM, compound concentration 10 uM, replicate 2
Cut-off 40% on Population Mitotic Cells (%), inclusive. At or above means rule met; below means rule not met.

Example entries begin here.
C[C@H](NC(=O)c1c(C(F)F)nn(C)c1Oc1cccc(C(F)(F)F)c1)c1ccc(C(=O)O)cc1 :: rule met
c1cc(OCCCN2CCCCC2)ccc1CN1CCCCC1 :: rule met

Proceed to the following item.
Exam item: Dear colleague, could you confirm whether Cc1ccc(C(C)(O)c2nc3ccccc3s2)c(C)c1 (configuration not stated) has Population Mitotic Cells (%) at or above 40%?
Marked response: rule met
